# credit: ChEMBL document CHEMBL1121560

TEST SUMMARY: Half-life for hydrolysis to 5-fluoro-2'-deoxyuridine-5'-phosphate at […] Centigrade
Format: ADME
PROPERTY: half-life (min)
The answer is to be given in min; state only the numeric part.

*Q* What value of half-life has been recorded for this entry: NP(N)(=O)OC[C@H]1O[C@@H](n2cc(F)c(=O)[nH]c2=O)C[C@@H]1O
*A* 15
